Target: human recombinant cytochrome P450 3A4 (Homo sapiens (Human), UniProt P08684)
Sequence (P08684 whole entry): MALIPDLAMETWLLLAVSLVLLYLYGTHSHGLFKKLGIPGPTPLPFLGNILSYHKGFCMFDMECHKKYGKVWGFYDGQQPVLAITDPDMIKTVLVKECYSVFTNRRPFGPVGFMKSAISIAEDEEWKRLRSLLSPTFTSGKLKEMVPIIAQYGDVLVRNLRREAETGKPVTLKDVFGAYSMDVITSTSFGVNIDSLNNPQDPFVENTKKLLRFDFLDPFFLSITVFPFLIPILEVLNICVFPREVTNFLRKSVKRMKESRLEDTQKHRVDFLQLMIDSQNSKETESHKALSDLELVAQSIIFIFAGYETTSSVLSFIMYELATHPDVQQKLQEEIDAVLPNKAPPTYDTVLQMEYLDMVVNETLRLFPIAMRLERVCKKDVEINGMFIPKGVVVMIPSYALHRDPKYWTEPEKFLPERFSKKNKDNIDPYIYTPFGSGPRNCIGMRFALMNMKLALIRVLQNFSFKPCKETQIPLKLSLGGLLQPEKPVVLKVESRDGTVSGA
Experiment: Biological Test Example 6: CYP3A4 Inhibition
Assay type: in vitro ADME
Conditions: read-out: Biological Test Example 6 CYP3A4, IC50
Task for the reader: assign each of the following compounds its reported IC50.

Hi team, please reply with IC50 for each item in this list.
1. C[C@@H](c1ccc(-c2ccc(F)cc2)cc1)N1CC[C@](CC(C)(C)O)(c2ccccc2)OC1=O [Comparator Compound 12, reference compound]
2. C[C@@H](c1ccc(-c2ccc(F)cc2F)cc1)N1CC[C@](CC(C)(C)O)(c2ccc(F)cc2)OC1=O [Comparator Compound 6, reference compound]
3. C[C@@H](c1ccc(OC(F)F)cc1)N1CC[C@](CCO)(c2ccc(F)cc2)OC1=O [Comparator Compound 14, reference compound]
4. C[C@@H](c1ccc(-c2ccc(F)cc2)cc1)N1CC[C@](CCC(N)=O)(c2ccccc2)OC1=O [Comparator Compound 11, reference compound]
5. C[C@@H](c1ccc(-c2ccc(=O)n(C)n2)cc1)N1CC[C@](CC(C)(C)O)(c2ccc(F)cc2)OC1=O
6. C[C@@H](c1ccc(Br)cc1)N1CC[C@](CC(C)(C)O)(c2ccc(F)cc2)OC1=O [Comparator Compound 13, reference compound]
7. C[C@@H](c1ccc(-c2ccc(=O)n(C3CC3)n2)cc1)N1CC[C@](CC(C)(C)O)(c2ccccc2)OC1=O
8. C[C@@H](c1ccc(-c2ccc(=O)n(CC(F)(F)F)n2)cc1)N1CC[C@](CC(C)(C)O)(c2ccccc2)OC1=O

Result string:
1: 4.9 µM; 2: 4.4 µM; 3: 19.7 µM; 4: 14.1 µM; 5: > 50 µM; 6: 4.4 µM; 7: 15.7 µM; 8: 15.6 µM

Hi team, please reply with IC50 for each item in this list.
1. Cc1cc(-c2ccc([C@H](C)N3CC[C@](CC(C)(C)O)(c4ccccc4)OC3=O)cc2)nn(C)c1=O
2. C[C@@H](c1ccc(Br)cc1)N1CC[C@](CC(C)(C)O)(c2ccccc2)OC1=O [Comparator Compound 15, reference compound]

Result string:
1: 31 µM; 2: 3.1 µM
